# assay_procedure: folding stability dG unfold (combined trypsin and chymotrypsin); higher = more stable
readout: folding stability dG unfold (kcal/mol)
Write the number in kcal/mol without appending the unit.

# annotated cases, reported folding stability dG unfold shown
query_sequence	u	folding stability dG unfold
SAGGFGIKIDEFDPDGEFRISIYDPDTWQPIAEFRIKIKPVPPPPPVEKRPYKDDDGEPKTVTHPDDQSAGG [r13_9_TrROS]	kcal/mol	1.43
SAGGSAGGSAGPFKIEMTFIFKKDNEYYIAKIEIEISPDGYPKMKIEIKKVDINELENYFSAGGSAGGSAGG [r11_690_TrMRF]	kcal/mol	4.04
SMTTEEKVEVSVTVTPDPNSDNVTLTLTITKRTYAKDENGNWTEVSTETSTITVTLSPEEAAKLAAELLSSA [r9_642_JUSTAS]	kcal/mol	4.34

# lookup: folding stability dG unfold of SAPKRYYIKIEIYDNGKKQEITIPIGATIKNPGGKEYTYPVDSPEDLEEALNDLFPPGFPIKIDDVHPPSAG [r14_41_TrROS]
0.973

// next record SAGGSAGGGAVVLEEAFDPVRPERLVLVEVVNEKGEPFRFPVPLEDLEAVFEKLPPGFPVLVLPSAGGSAGG [r6_111_TrMRF]
0.36

// next record SAGGRIKDIEPIPPNDPPGQKLTIKFPDGGPIEIPMEKEPDENGPYYYKFKLQVNNGEIEVMFRIPNSAGGS [r8_360_TrROS]
5.18

// next record SAGGSVTITSITSIDTSSLSPDSVVTADVPDGKPVLIKGKVPPDGSVILTFYTPDGKPVATFTIPSSAGGSA [r2_323_JUSTAS]
0.669

// next record SAGKINIPPDTDITVKISTEKKPNPPSPEEEEYVGVSYIKVKKNPDGSIEVEEEKFEIISKEEAEKMGLSAG [r5_340_JUSTAS]
0.23

// next record SAGGSAGGSAGGEKKKIAKKIKEELEKKGIKVKKVETSEDYIYITFEDGSKKKIKIDKGSAGGSAGGSAGGS [r10_169_TrMRF]
1.74

// next record SAGGSAGGSAMRELVKRAAKNGNPGQKVMIRPPDKRYFPITVEGNKIEPKDLPPGWEVHVISAGGSAGGSAG [r3_244_TrROS]
-0.37

// next record SAGGLTTQETVSLTSPTNVALTVLSTSVTLSPSTRTLSYTVQGPDGTVTTETVVTPAPLPELDPSAGSAGGS [r16_132_JUSTAS]
-0.159

// next record SAGGETKTFTIDEIRAKLKEALDNGIDEVRITVFRDGKEEEITIPASKLDEIIASLPPDATVRIERVSAGGS [r16_636_TrROS_Hall]
1.97

Reference source for all entries: the supplement of paper PMC12764529
